- Test system: Staphylococcus aureus
- assay remarks: Antimicrobial activity against Staphylococcus aureus AHU1142 at 25 ug/8 mm disk after 18 hrs by paper disk method
- Assay type: functional
readout name: inhibition zone (IZ)
The answer consists of two parts: a number and, after it, its unit.

Req: Missing value: inhibition zone (IZ), Staphylococcus aureus, entry CC1=CC(=O)C([C@@]2(C)CCC(=O)C2(C)C)=CC1=O [ENOKIPODIN B] . Fill in?
Resp: 0 mm

Req: Missing value: inhibition zone (IZ), Staphylococcus aureus, entry CC1=CC(=O)C([C@@]2(C)[C@H](O)CC(=O)C2(C)C)=CC1=O [ENOKIPODIN D] . Fill in?
Resp: 0 mm

Req: Missing value: inhibition zone (IZ), Staphylococcus aureus, entry Cc1cc2c(cc1O)[C@@]1(C)[C@H](O)C[C@@](O)(O2)C1(C)C [ENOKIPODIN C] . Fill in?
Resp: 18 mm

Req: Missing value: inhibition zone (IZ), Staphylococcus aureus, entry Cc1cc2c(cc1O)[C@@]1(C)CC[C@@](O)(O2)C1(C)C [ENOKIPODIN A] . Fill in?
Resp: 19.2 mm
